Measured On: Steryl-sulfatase (Homo sapiens)
Sequence (P08842 whole entry): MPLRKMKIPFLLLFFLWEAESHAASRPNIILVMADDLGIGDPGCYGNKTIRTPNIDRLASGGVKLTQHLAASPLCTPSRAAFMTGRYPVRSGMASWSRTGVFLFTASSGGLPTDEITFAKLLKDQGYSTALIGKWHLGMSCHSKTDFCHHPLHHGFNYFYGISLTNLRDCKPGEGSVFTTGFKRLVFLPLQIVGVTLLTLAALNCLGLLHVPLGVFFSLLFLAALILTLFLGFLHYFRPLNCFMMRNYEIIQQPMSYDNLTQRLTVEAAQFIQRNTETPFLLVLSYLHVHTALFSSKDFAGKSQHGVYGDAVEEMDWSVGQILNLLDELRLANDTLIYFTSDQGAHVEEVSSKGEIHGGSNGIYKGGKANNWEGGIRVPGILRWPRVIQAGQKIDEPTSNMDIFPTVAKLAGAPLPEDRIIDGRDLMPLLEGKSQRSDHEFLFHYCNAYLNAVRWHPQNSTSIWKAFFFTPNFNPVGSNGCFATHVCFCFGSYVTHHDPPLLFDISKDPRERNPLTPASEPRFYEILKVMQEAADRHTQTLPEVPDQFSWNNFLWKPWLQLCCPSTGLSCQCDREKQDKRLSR
Attribute Measured: IC50 (µM)
Report the figure in µM without appending any unit label.

C[C@]12CC[C@@H]3c4ccc(OS(N)(=O)=O)cc4CCC3[C@@H]1CCC2=O (single isomer, unassigned) [EMATE] ... 0.08

Would you kindly look at the next entry?
Reported IC50 ( CSP(=O)(O)Oc1ccc2c(c1)CC[C@@H]1[C@@H]2CC[C@]2(C)C(=O)CC[C@@H]12 ) = 43

====

Measured On: Steryl-sulfatase (Homo sapiens)
Sequence (whole entry): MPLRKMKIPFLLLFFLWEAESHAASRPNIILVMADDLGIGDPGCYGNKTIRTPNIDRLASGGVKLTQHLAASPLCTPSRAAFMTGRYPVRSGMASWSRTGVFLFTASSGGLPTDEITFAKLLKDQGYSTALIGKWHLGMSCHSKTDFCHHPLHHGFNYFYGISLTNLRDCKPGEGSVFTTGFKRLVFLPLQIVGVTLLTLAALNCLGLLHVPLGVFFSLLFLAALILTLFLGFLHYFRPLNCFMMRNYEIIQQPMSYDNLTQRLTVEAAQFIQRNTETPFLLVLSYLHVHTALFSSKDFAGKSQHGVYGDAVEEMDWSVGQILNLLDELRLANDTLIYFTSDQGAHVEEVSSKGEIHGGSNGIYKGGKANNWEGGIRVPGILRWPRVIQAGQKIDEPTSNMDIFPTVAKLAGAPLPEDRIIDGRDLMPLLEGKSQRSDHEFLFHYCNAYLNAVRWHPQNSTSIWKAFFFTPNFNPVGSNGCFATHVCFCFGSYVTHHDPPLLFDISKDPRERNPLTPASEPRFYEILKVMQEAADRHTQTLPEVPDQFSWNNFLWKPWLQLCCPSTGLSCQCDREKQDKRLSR
Assay Notes: Tested for inhibition of estrone sulfatase in MCF-7 breast cancer cells using 2 nM substrate concentration at 1 uM
Type: cell-based
Settings: MCF7
Attribute Measured: inhibition (%)
Report the figure in % without appending any unit label.

Record excerpt, results attached:
NS(=O)(=O)Oc1ccc2c(c1)CCCC2 ... 47
CNS(=O)(=O)Oc1ccc2c(c1)CCC1[C@@H]2CC[C@]2(C)C(=O)CC[C@@H]12 (single isomer, unassigned) ... 87
CSP(=O)(O)Oc1ccc2c(c1)CC[C@@H]1[C@@H]2CC[C@]2(C)C(=O)CC[C@@H]12 ... 74

Would you kindly look at the next entry?
Reported inhibition ( CN(C)S(=O)(=O)Oc1ccc2c(c1)CCC1[C@@H]2CC[C@]2(C)C(=O)CC[C@@H]12 (single isomer, unassigned) ) = 87
